Tested on: OVCAR-5
Assay: NCI tumour cell line growth inhibition, 48 h
Calls of active or inactive are those of the source. Cut-off read from the data, not from the text of the source: active = GI50 up to about 1.1 µM and inactive = higher.
experimentalReadout: GI50

>>> measvalue("COc1ccc(-c2cc(O)c3cc(OC)c(OC)cc3n2)cc1OC")
"> 100 µM (inactive)"
>>> measvalue("Cc1c(-c2ccccc2)n[nH]c1NC1(C)C(=O)N(/N=C/c2ccccc2)N=C1c1ccccc1 (stereo not given)")
"> 100 µM (inactive)"
>>> measvalue("CC(C)[Si](OC1=CCCCCC12C(=O)N(C)c1ccccc12)(C(C)C)C(C)C (stereo not given)")
"16.9 µM (inactive)"
>>> measvalue("CCOC(=O)C(O)(CC1=NC(C(=O)OC)(C(=O)OC)C(c2cccc(C=O)c2)O1)C(=O)OCC (stereo not given)")
"> 100 µM (inactive)"
>>> measvalue("CC(C)(O)/C1=C/C=C/CCCCCCCCCC1")
"> 100 µM (inactive)"
>>> measvalue("Cc1ccc(C)c(COCCOCn2c(=O)[nH]c(=O)c3cc(Br)ccc32)c1")
"> 100 µM (inactive)"
>>> measvalue("CN(C(=O)C1CCCCCC1=O)c1ccccc1Cl (stereo not given)")
"> 100 µM (inactive)"
>>> measvalue("CC(=O)O[C@H]1[C@@H](N2CCN(C)CC2)C[C@H]2[C@@H]3CC=C4C[C@@H](N5CCCC5)CC[C@]4(C)[C@H]3CC[C@@]21C")
"34.5 µM (inactive)"
>>> measvalue("CC(C)(C)OC(=O)C1=C(C(=O)OC(C)(C)C)SC2(S1)C(C(=O)OC(C)(C)C)=C(C(=O)OC(C)(C)C)Sc1c2ssc1=O")
"59.8 µM (inactive)"
>>> measvalue("Cc1ccc(C2c3c(n(C)c(=O)n(C)c3=O)OC(N(C)C)(N(C)C)C2(F)F)cc1 (stereo not given)")
"> 100 µM (inactive)"
>>> measvalue("CCOC(=O)c1c(-c2ccccc2)oc(-c2ccccc2)c1C(=O)OCC")
"> 100 µM (inactive)"
>>> measvalue("O=c1cc[nH]c2c1ccc1ncccc12")
"> 100 µM (inactive)"
>>> measvalue("Cc1[nH]c2ncn(N)c(=N)c2c1Cc1ccccc1")
"> 100 µM (inactive)"
>>> measvalue("CCC(c1ccc(N(C)C)cc1)C1NC(=S)NC1=O (stereo not given)")
"> 100 µM (inactive)"
>>> measvalue("CCOC(=O)C1C(=O)CC(O)(c2ccccc2)C(C(=O)OCC)C1c1ccc(OC)cc1 (stereo not given)")
"50.6 µM (inactive)"
>>> measvalue("CCOC(=O)C1=C(NC)OCC1=O")
"> 100 µM (inactive)"
>>> measvalue("O=C(CNC(=O)c1ccccc1)Oc1c(Cl)c(Cl)c(Cl)c(Cl)c1Cl")
"47.2 µM (inactive)"
>>> measvalue("COC(=O)C1=C(OC)c2cc3c(cc2C(c2cc(OC)c(OC)c(OC)c2)C1C(=O)OC)OCO3 (stereo not given)")
"> 100 µM (inactive)"
>>> measvalue("C/C(=N/NC(N)=S)C(CN1CCOCC1)C(C1=C(O)c2ccccc2OC1)c1ccccc1 (stereo not given)")
"> 100 µM (inactive)"
>>> measvalue("O=Cc1c2n(c3ccccc13)N[C@@](Cc1ccc(O)cc1)(C(=O)O)C2")
"> 100 µM (inactive)"
>>> measvalue("O=C(Cc1ccccc1)NN1C(=O)C(Cl)C1c1ccc(Cl)cc1 (stereo not given)")
"> 100 µM (inactive)"
>>> measvalue("CCCC(=O)OCC1OC(n2ccc(N)nc2=O)C(OC(=O)CCC)C1OC(=O)CCC (stereo not given)")
"15.5 µM (inactive)"
>>> measvalue("CC1OC(=O)c2ccccc2NC1=O (stereo not given)")
"> 100 µM (inactive)"
>>> measvalue("CC(=O)OC(OC(C)=O)c1ccc2ccc3cccc4ccc1c2c34")
"20 µM (inactive)"
>>> measvalue("O=C1Nc2ccccc2/C1=C1/Nc2ccccc2/C1=N/OCCOCCO")
"4.62 µM (inactive)"
